Molecular target: UniProt:P03372
Sequence (P03372 1-595): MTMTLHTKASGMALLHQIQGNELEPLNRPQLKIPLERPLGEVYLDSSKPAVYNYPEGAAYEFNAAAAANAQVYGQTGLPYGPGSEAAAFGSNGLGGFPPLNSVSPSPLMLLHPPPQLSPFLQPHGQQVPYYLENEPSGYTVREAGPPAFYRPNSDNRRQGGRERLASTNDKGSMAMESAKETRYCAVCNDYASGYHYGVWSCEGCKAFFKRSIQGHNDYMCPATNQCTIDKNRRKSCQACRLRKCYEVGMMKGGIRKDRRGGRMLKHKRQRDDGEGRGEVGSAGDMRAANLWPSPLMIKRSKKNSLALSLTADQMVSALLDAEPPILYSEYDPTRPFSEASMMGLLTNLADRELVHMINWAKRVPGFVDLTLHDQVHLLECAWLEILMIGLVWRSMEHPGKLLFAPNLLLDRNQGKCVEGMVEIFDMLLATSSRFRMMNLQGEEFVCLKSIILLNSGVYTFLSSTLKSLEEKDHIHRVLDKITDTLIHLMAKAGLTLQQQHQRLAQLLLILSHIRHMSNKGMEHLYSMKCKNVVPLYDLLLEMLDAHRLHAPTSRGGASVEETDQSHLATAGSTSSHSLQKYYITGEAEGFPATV
Assay: Degradation of ERα in T-47D cells (immunoblotting, 4 h)
Assay type: cell-based
Parameters: host or cells: T-47D
Conditions: 10nM compound
readout.name: Degradation rate (%) of ERα in T-47D cells
Lab book: enter the figure in %, no units written.

[Q] Kindly state the measured Degradation rate (%) of ERα in T-47D cells obtained for CCN(C1CCN(c2ccc([C@@H]3c4ccc(O)cc4CC[C@@H]3c3ccccc3)cc2)CC1)[C@H]1CC[C@@H](C(=O)N2CCC3(CC2)COc2c3ccc3c2CN(C2CCC(=O)NC2=O)C3=O)CC1 (stereo partly drawn) with UniProt:P03372.
[A] 80

[Q] // lookup Degradation rate (%) of ERα in T-47D cells | system=UniProt:P03372 | key= O=C1CCC(N2Cc3c(ccc4c3OCC43CCN(C(=O)CN(CC4CC4)CC4CCN(c5ccc([C@@H]6c7ccc(O)cc7CC[C@@H]6c6ccccc6)cc5)CC4)CC3)C2=O)C(=O)N1 (stereo partly drawn)
[A] 68

[Q] Test system UniProt:P03372; read-out Degradation rate (%) of ERα in T-47D cells; what value for O=C1CCC(N2C(=O)c3ccc4c(c3C2=O)OCC42CCN(C3CCC4(CC3)CN(c3ccc([C@@H]5c6ccc(O)cc6CC[C@@H]5c5ccccc5)cc3)C4)CC2)C(=O)N1 (stereo partly drawn) ?
[A] 34
